Recorded values, source PubChem BioAssay (NCATS).

test system: CP252; experiment: qHTS profiling for inhibitors of Plasmodium falciparum proliferation (AID 504749); further: nearly all actives have a fitted effect of over 60% in size; conditions: P. falciparum in erythrocytes, SYBR Green DNA, 72 h; series mostly up to 28.7 µM
Records with an inconclusive call do not appear. The source made the active and inactive calls. The call rests on the fitted dose curve; in most records, active means well fitted inhibition curve with a large enough effect; inconclusive means small, poorly fitted or top-dose-only effect; inactive means flat fitted curve, though single readings scatter.
Outcomes: active, inactive

{"columns": ["COMPOUND", "CLASS"],
 "data": [
  ["CC(=O)OCC(=O)[C@H]1CC[C@H]2[C@@H]3CCC4=CC(=O)CC[C@]4(C)[C@H]3CC[C@]12C", "inactive"],
  ["NC(=O)C1(N2CCCCC2)CCN(CCCC(=O)c2ccc(F)cc2)CC1", "inactive"],
  ["CO[C@]12C[C@@H](COC(=O)c3cncc(Br)c3)CN(C)[C@@H]1Cc1cn(C)c3cccc2c13", "inactive"],
  ["CCNC(=O)NCc1cccc(Cl)c1", "inactive"],
  ["C=C[C@@]1(C)CC(=O)[C@]2(O)[C@@]3(C)[C@@H](O)CCC(C)(C)[C@@H]3[C@H](O)[C@H](OC(C)=O)[C@@]2(C)O1", "inactive"],
  ["C/C=C/C=N/NC(=O)c1ccncc1", "inactive"],
  ["O=C(c1ccc(F)cc1)C1CCN(CCn2c(=S)[nH]c3ccccc3c2=O)CC1", "active"],
  ["NS(=O)(=O)c1ccc(Cl)c(S(N)(=O)=O)c1", "inactive"],
  ["CCN(CC)CCNC(=O)COc1ccc(OC)cc1", "inactive"],
  ["CC(=O)OC[C@H]1O[C@@H](n2ncc(=O)[nH]c2=O)[C@H](OC(C)=O)[C@@H]1OC(C)=O", "inactive"],
  ["Cc1ccc(O)c([C@H](CCN(C(C)C)C(C)C)c2ccccc2)c1", "active"],
  ["NS(=O)(=O)c1cc(C(=O)O)cc(N2CCCC2)c1Oc1ccccc1", "inactive"],
  ["Cc1ccccc1OCC(O)CO (stereo not drawn)", "inactive"],
  ["Oc1ccccc1C=NCc1ccccc1", "inactive"],
  ["CC(C)Cn1cnc2c1c(=O)n(C)c(=O)n2C", "inactive"],
  ["N#CCC(=O)NN", "inactive"],
  ["C#C[C@]1(O)CC[C@H]2[C@@H]3CCC4=CC(=O)CC[C@@H]4[C@H]3CC[C@@]21CC", "inactive"],
  ["Oc1c(Cl)cc(Cl)c(Cl)c1Cc1c(O)c(Cl)cc(Cl)c1Cl", "active"],
  ["O=C(O)CCC(=O)Nc1ccc(S(=O)(=O)Nc2nccs2)cc1", "inactive"],
  ["Cc1cc2c(OCC(CNC(C)(C)C)OC(=O)c3ccccc3)cccc2[nH]1 (stereo not drawn)", "inactive"],
  ["Oc1ccc(Cl)cc1Cc1cc(Cl)ccc1O", "active"],
  ["Cc1ccc(S(=O)(=O)NC(=O)NC2CCCC2)cc1", "inactive"],
  ["Cc1nc(-c2ccc(Cl)cc2)oc1COC(C)(C)C(=O)O", "inactive"],
  ["O=C1C(CCS(=O)c2ccccc2)C(=O)N(c2ccccc2)N1c1ccccc1 (stereo not drawn)", "inactive"],
  ["CC(C)NCC(O)c1ccc2ccccc2c1 (stereo not drawn)", "active"],
  ["O=C(O)c1ccc(S(=O)(=O)N(Cl)Cl)cc1", "inactive"],
  ["CN1CCN(C2=Nc3ccccc3Sc3ccc(Cl)cc32)CC1", "inactive"],
  ["CCCCC(CC)COC(=O)c1ccc(N(C)C)cc1 (stereo not drawn)", "inactive"],
  ["CCOc1cc(OCC)c(C(=O)CCC(=O)O)cc1OCC", "inactive"],
  ["CC(=O)NO", "inactive"],
  ["CC(=O)NC(=O)c1ccccc1O", "inactive"],
  ["CC1=C(C(=O)O)N2C(=O)[C@@H](NC(=O)[C@H](N)c3ccccc3)[C@H]2SC1", "inactive"],
  ["CCCCCCCCNC(C)C(O)c1ccc(SC(C)C)cc1 (stereo not drawn)", "active"],
  ["NCc1ccccc1Sc1ccccc1CO", "inactive"],
  ["CCc1oc2ccccc2c1C(=O)c1cc(Br)c(O)c(Br)c1", "inactive"],
  ["C=CCN1CCc2nc(N)sc2CC1", "inactive"],
  ["CCOC(=O)c1ccc(N)cc1", "inactive"],
  ["O=C1C(O)=C(O)C(=O)C(O)=C1O", "inactive"],
  ["CC(=O)Oc1ccc(C)cc1", "inactive"],
  ["CCc1oc2ccccc2c1C(=O)c1cc(I)c(O)c(I)c1", "inactive"],
  ["COc1cc(C(=S)N2CCOCC2)ccc1O", "inactive"],
  ["CCOCCn1c(N2CCCN(C)CC2)nc2ccccc21", "inactive"],
  ["CCCCCCCCCCCCCC[N+](C)(C)Cc1ccccc1", "active"],
  ["CCCCCCCC/C=C\\CCCCCCCCN", "inactive"],
  ["C/C=C/c1ccc(O)c(OC)c1", "inactive"],
  ["NC(=S)N/N=C/c1cccnc1", "inactive"],
  ["CCCCNc1ccc(C(=O)OCCOCCOCCOCCOCCOCCOCCOCCOCCOC)cc1", "inactive"],
  ["COc1ccc(CCN(C)CCCN2CCc3cc(OC)c(OC)cc3CC2=O)cc1OC", "inactive"]
]}
